Where do these numbers come from? They come from patent US20250297007A1.

# system: T1, recombinant protein TCRVB 6-5 (human, biotinylated (captured on a Biotin CAP chip); site not stated)
# T1 construct: also called TCRVβ 6-5; TCRβ V6-5*01
# T1 TCR beta: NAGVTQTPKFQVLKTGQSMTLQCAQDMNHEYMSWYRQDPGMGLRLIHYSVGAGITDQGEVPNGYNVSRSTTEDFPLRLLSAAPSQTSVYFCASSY
# run-description: SPR-type chip assay; TCRVB 6-5 captured on Biotin CAP Series S chip, construct as analyte, 1:1 binding model, 25C
pKd: −log10 of the molar value.

[
  {
    "binder": "BJM0277 (antibody, V domains shown) VH: QVQLVQSGAEVKKPGSSVKVSCKASGYSFTTYYIHWVRQAPGQGLEWMGWFFPGSGNIKYNEKFKGRVTITADTSTSTAYMELSSLRSEDTAVYYCAGSYYSYDVLDYWGQGTTVTVSS VL: DIQMTQSPSFLSASVGDRVTITCKASQNVGINVVWHQQKPGKAPKALIYSSSHRYSGVPSRFSGSGSGTEFTLTISSLQPEDFATYFCQQFKSYPLTFGQGTKLEIKR",
    "pKd": 7.46
  },
  {
    "binder": "A-H.52 (scFv, Phage clone, stated to be a monovalent scFv with two mutations in CDRH1; also called Antibody A-H.52) scFv: QVQLVQSGAEVKKPGSSVKVSCKASGYSFTLGYIHWVRQAPGQGLEWMGWFFPGSGNIKYNEKFKGRVTITADTSTSTAYMELSSLRSEDTAVYYCAGSYYSYDVLDYWGQGTTVTVSSGGGGSGGGGSGGGGSGGGGSDIQMTQSPSFLSASVGDRVTITCKASQNVGINVVWHQQKPGKAPKALIYSSSHRYSGVPSRFSGSGSGTEFTLTISSLQPEDFATYFCQQFKSYPLTFGQGTKLEIK",
    "pKd": 8.75
  },
  {
    "binder": "A-H.54 (scFv, Phage clone; also called Antibody A-H.54) scFv: QVQLVQSGAEVKKPGSSVKVSCKASGYSFHNWYIHWVRQAPGQGLEWMGWFFPGSGNIKYNEKFKGRVTITADTSTSTAYMELSSLRSEDTAVYYCAGSYYSYDVLDYWGQGTTVTVSSGGGGSGGGGSGGGGSGGGGSDIQMTQSPSFLSASVGDRVTITCKASQNVGINVVWHQQKPGKAPKALIYSSSHRYSGVPSRFSGSGSGTEFTLTISSLQPEDFATYFCQQFKSYPLTFGQGTKLEIK",
    "pKd": 8.65
  },
  {
    "binder": "A-H.53 (scFv, Phage clone; also called Antibody A-H.53) scFv: QVQLVQSGAEVKKPGSSVKVSCKASGYSFRLTYIHWVRQAPGQGLEWMGWFFPGSGNIKYNEKFKGRVTITADTSTSTAYMELSSLRSEDTAVYYCAGSYYSYDVLDYWGQGTTVTVSSGGGGSGGGGSGGGGSGGGGSDIQMTQSPSFLSASVGDRVTITCKASQNVGINVVWHQQKPGKAPKALIYSSSHRYSGVPSRFSGSGSGTEFTLTISSLQPEDFATYFCQQFKSYPLTFGQGTKLEIK",
    "pKd": 9.78
  }
]
